- test_target: Protein deacetylase HDAC6 (Homo sapiens, UniProt Q9UBN7)
- Sequence (Q9UBN7 whole entry): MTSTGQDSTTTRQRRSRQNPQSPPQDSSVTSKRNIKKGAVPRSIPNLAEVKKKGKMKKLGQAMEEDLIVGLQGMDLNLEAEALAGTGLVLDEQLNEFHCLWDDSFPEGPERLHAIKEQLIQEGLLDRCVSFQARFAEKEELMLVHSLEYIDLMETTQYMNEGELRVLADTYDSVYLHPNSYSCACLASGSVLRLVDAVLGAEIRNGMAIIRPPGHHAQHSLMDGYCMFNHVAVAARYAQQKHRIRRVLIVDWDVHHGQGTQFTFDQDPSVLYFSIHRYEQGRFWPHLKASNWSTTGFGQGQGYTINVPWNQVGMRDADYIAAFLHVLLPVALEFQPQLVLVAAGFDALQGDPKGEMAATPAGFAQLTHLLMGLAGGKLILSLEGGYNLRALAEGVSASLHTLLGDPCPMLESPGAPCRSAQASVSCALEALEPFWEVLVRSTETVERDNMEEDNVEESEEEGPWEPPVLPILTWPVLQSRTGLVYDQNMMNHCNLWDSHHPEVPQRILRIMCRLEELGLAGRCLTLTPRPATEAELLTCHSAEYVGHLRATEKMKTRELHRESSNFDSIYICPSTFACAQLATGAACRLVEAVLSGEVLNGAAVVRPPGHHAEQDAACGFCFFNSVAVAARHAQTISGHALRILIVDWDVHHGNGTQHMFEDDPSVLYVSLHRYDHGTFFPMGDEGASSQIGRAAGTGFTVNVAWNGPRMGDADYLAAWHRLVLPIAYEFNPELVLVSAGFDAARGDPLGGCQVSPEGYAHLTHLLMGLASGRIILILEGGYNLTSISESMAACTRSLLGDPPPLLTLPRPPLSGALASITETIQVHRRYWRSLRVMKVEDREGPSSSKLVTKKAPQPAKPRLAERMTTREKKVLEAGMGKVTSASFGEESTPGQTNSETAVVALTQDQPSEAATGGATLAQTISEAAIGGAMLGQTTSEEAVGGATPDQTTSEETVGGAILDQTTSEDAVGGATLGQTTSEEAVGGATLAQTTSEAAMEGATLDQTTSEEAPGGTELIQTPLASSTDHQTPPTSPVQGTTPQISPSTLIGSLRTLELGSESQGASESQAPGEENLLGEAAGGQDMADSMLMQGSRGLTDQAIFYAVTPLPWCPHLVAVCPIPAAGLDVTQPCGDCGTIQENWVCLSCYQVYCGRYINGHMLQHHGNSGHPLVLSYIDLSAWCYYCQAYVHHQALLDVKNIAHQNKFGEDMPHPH
- protocol_summary: Inhibition of HDAC6 (unknown origin) preincubated for 5 mins followed by substrate addition and measured after 30 mins by multimode microplate reader analysis
measured_endpoint: IC50 (µM)

See these solved cases before continuing.
structure_smiles_string	endpoint_result
Cc1cc(C)c(CNC(=O)c2cc(-c3ccc(N4CCN(CCCC(=O)NO)CC4)nc3)cc3c2cnn3C(C)C)c(=O)[nH]1	6.89
Cc1cc(C)c(CNC(=O)c2cc(-c3ccc(N4CCN(CCCCCCCCCC(=O)NO)CC4)nc3)cc3c2cnn3C(C)C)c(=O)[nH]1	3.32
Cc1cc(C)c(CNC(=O)c2cc(-c3ccc(NC(=O)CCCCCC(=O)NO)cc3)cc3c2cnn3C(C)C)c(=O)[nH]1	0.25
Cc1cc(C)c(CNC(=O)c2cc(-c3ccc(N4CCN(C(=O)OC(C)(C)C)CC4)nc3)cc(NCCCCCCC(=O)NO)c2C)c(=O)[nH]1	2.01

A. Cc1cc(C)c(CNC(=O)c2cc(-c3ccc(N4CCN(CCCCCCC(=O)NO)CC4)nc3)cc3c2cnn3C(C)C)c(=O)[nH]1
B. Cc1cc(C)c(CNC(=O)c2cc(-c3ccc(N4CCN(CCCCC(=O)NO)CC4)nc3)cc3c2cnn3C(C)C)c(=O)[nH]1
C. Cc1cc(C)c(CNC(=O)c2cc(-c3ccc(N4CCN(C(=O)CCCC(=O)NO)CC4)nc3)cc3c2cnn3C(C)C)c(=O)[nH]1
Task: Arrange these molecules by their IC50, starting with the largest number. Output spec: a listing of the labels in the requested order.
Result: B, C, A

====

- Test system: SU-DHL10
- protocol_summary: cells
- conditions_used: Homo sapiens, SU-DHL10, 72 h
pIC50: −log10 of the molar value.
measured_endpoint: pIC50

structure_smiles_string	endpoint_result
CCN(c1cc(-c2ccc(N3CCN(c4ncc(C(=O)NO)cn4)CC3)nc2)cc(C(=O)NCc2c(C)cc(C)[nH]c2=O)c1C)C1CCOCC1	6.09
CC[C@@H](C)n1cc(C)c2c(C(=O)NCc3c(C)cc(C)[nH]c3=O)cc(-c3ccc(N4CCN(c5ncc(C(=O)NO)cn5)CC4)nc3)cc21	6.08
Cc1cc(C)c(CNC(=O)c2cc(-c3ccc(N4CCN(CCCCCCCCC(=O)NO)CC4)nc3)cc3c2cnn3C(C)C)c(=O)[nH]1	5.91
